experiment: Pharmacokinetic study; assay type: in vivo; conditions: rat, plasma, po; SD rats, p.o. 10 mg/kg
METRIC NAME: AUC(0-t) (ng·h/mL)
Record the value in ng·h/mL, omitting the unit from your answer.

GET /values?readout=AUC(0-t)&item= CN(C)Cc1cccc(Nc2ncc(Cl)c(-c3csc(C(=O)NN4CCOCC4)c3)n2)c1
304

----------
biological target: ERK2 (Homo sapiens, UniProt P28482)
Sequence (P28482 whole entry): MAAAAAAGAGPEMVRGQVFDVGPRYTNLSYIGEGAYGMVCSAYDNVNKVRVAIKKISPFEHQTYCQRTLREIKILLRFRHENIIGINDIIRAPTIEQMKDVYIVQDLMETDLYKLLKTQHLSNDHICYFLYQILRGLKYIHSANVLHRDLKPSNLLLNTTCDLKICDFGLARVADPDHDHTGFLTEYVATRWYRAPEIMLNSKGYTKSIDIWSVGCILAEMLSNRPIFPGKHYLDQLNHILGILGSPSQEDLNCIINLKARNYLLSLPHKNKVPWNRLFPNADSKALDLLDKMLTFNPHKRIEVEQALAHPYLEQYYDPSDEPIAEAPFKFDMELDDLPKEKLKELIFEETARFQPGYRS
METRIC NAME: Kd (µM)
Express the result in µM but write the number alone.

Observed Kd on ERK2 (Homo sapiens, UniProt P28482) for CN(C)Cc1cccc(Nc2ncc(Cl)c(-c3csc(C(=O)NN4CCOCC4)c3)n2)c1 , please.
0.21
